# credit: the supplement of paper PMC10567573

B1: VTI1B (parent)
chain: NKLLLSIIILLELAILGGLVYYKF

Variants of: B1
Measurement protocol: protein stability index of a GFP-peptide fusion (GPS, HEK-293T) (PSI 1-6); higher = more stable;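 further: lentivirally expressed fusions sorted by FACS into six bins by GFP to DsRed ratio, PSI derived from sequencing read proportions per bin multiplied by bin number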
Test context: c terminus: a fixed tail appended
Quick rule for you: protein stability index at 3 or higher means y, lower means n.

| Mutation id | Group |
| --- | --- |
| L3S | n |
| E12A | n |
| G17S | y |
| I15T | n |
| L19P | y |
| S6K | n |
| L19M | n |
| N1S | n |
| K23H | n |
| I15L | n |
| L16N | n |
| N1T | y |
| I9W | n |
| Y21I | n |
| G18P | n |
| V20Q | y |
| L5V | n |
| L4E | n |
| A14F | y |
| Y21S | n |
| Y22S | n |
| A14S | n |
| E12R | n |
| L4M | n |
| L10R | n |
| G18E | n |
| I7H | n |
| F24Y | n |
| L4S | n |
| G18A | n |
| G18Y | n |
| G17N | n |
| L13I | y |
| A14M | n |
| I7N | n |
| A14N | n |
| L4W | n |
| E12S | n |
| E12C | n |
| I9D | y |
| G17T | y |
